Test system: KG-1
protocol description: cell viability (% survival relative to DMSO control, bortezomib = 0%); higher = less cytotoxic
run parameters: 10000 nM; 72 h
// NB: equality with 80% counts as label 0; only cell viability strictly below is label 1

compound: Nc1nc(Cl)nc2c1ncn2[C@H]1C[C@H](O)[C@@H](CO)O1 [Cladribine]
class label: label 1

compound: Cc1cn([C@H]2C[C@H](O)[C@@H](COP(=O)(O)OP(=O)(O)O)O2)c(=O)[nH]c1=O [Thymidine diphosphate]
class label: label 0

compound: Cc1ccccc1C(C(=O)NC1CCCCC1)N(C(=O)Cn1ccnc1C)c1cccc(F)c1 (stereo unspecified) [AGI-5198]
class label: label 0

compound: O=C(C1CC1)N1CC[C@@H](C=C2NNC(=O)N2c2ccc(-c3ccc4occc4c3)cc2)C1
class label: label 0

compound: CCCc1cc(-c2nc(-c3ccc(C)cc3)cs2)ccn1 [Fatostatin]
class label: label 1

compound: Cc1c(-c2ccc(-c3ccccc3F)cc2)nc2ccc(F)cc2c1C(=O)O [Brequinar]
class label: label 0
